meta.source: ChEMBL document CHEMBL4177768

Test system: RAW264.7
Experiment: Antiinflammatory activity in mouse RAW264.7 cells assessed as reduction in LPS-induced IL6 production at 1 pM to 100 nM incubated for 2 hrs prior to LPS challenge measured after 24 hrs by ELISA
Type: functional, cell-based
Calls of active or inactive are those of the source. No cut-off for these calls is given here.
The categories you may choose from are true (1) for active, false (0) for inactive

Here's what some known entries look like.
{"smiles notation": "COc1ccc2c(c1)CCN2CCC(=O)O", "class label": "false (0)"}
{"smiles notation": "CC(C)NC(=O)CCN1CCc2ccc(F)cc21", "class label": "false (0)"}

Hi team, can someone confirm the assay call for COC(=O)CCN1CCc2ccc(C)cc21 ? false (0)

Hi team, can someone confirm the assay call for COc1ccc2c(c1)CCN2CCCO.Cl ? true (1)

Hi team, can someone confirm the assay call for CC(C)NC(=O)CCN1CCc2cc(Cl)ccc21 ? false (0)
